- Target: recombinant eIF4E (Homo sapiens (Human), UniProt P06730)
- Sequence (P06730 whole entry): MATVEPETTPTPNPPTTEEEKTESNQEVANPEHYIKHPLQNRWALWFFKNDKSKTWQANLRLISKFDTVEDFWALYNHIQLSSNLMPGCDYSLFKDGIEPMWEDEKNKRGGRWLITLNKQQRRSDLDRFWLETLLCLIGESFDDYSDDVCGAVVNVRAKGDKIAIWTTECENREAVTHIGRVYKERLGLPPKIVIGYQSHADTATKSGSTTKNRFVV
- Test Name: Fluorescence polarization competition assay for eIF4E binding potency
- Measurement Conditions: inhibition of eIF4E/EDA-m7GDP-ATTO-550 binding by 50%; Table 4B calculated values; read-out: IC50
Would you mind telling me the reported pIC50 of each entry?
Answers are plain numbers, as −log10 of the molar value.

In the examples that follow, each entry is paired with its recorded pIC50.
- Compound: "Cc1ccc(-c2cc(Cl)ccc2OCCn2c(C)nc3cc(C(F)(F)F)c(CN(C)C)c(C#N)c3c2=O)c2scc(C(=O)O)c12 [compound 564]"
  Target: "recombinant eIF4E (Homo sapiens (Human), UniProt P06730)"
  pIC50: 7.39
- Compound: "Cc1ccc(-c2cc(Cl)ccc2OCCn2c(C)nc3ccc(CCN(C)C)c(C#N)c3c2=O)c2scc(C(=O)O)c12 [compound 576]"
  Target: "recombinant eIF4E (Homo sapiens (Human), UniProt P06730)"
  pIC50: 7.75

Report pIC50 for every entry below.
1. Cc1cc(-c2cc(Cl)ccc2OCCn2c(C)nc3cc(C(F)(F)F)c(-c4cc(F)ccn4)c(C#N)c3c2=O)c2scc(C(=O)O)c2n1 [compound 777]
2. Cc1nc2cnc(N(C)C3CCN(C)CC3)c(C#N)c2c(=O)n1CCOc1ccc(Cl)cc1-c1ccnc2c(C(=O)O)csc12 [compound 854]
3. Cc1cc(-c2cc(Cl)ccc2OCCn2c(C)nc3cc(C(F)(F)F)c(-c4cnccc4F)c(C#N)c3c2=O)c2scc(C(=O)O)c2n1 [compound 343]
4. Cc1nc2cc(C(F)(F)F)c(CC3CN(CC(F)(F)F)C3)c(C#N)c2c(=O)n1CCOc1ccc(Cl)cc1-c1ccnc2c(C(=O)O)csc12 [compound 494]

7.27
7.92
7.38
7.07
